Quick reference: Activity of the listed items.
- SYSTEM_NAME: Protein cereblon/Tyrosine-protein kinase BTK (Mus musculus) (UniProt P35991+Q8C7D2)
- Sequence (P35991 whole entry, looked up): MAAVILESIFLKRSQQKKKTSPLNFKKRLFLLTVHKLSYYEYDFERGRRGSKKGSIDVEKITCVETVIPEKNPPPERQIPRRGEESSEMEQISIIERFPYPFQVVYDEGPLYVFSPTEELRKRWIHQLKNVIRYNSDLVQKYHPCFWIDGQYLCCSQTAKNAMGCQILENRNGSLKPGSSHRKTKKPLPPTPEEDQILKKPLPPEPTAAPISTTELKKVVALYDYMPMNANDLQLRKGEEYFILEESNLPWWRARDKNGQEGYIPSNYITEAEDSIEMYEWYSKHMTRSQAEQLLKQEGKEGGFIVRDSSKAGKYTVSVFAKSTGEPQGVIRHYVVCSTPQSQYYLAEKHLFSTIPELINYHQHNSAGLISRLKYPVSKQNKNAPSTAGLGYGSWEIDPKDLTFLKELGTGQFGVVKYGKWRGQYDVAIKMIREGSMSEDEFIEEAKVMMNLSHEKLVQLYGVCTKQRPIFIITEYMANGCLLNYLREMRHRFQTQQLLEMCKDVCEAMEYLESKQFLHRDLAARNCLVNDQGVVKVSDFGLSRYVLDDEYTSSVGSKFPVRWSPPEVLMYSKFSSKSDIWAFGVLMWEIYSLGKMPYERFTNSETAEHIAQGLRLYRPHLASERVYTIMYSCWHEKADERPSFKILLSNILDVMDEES
- Sequence (Q8C7D2 whole entry, looked up): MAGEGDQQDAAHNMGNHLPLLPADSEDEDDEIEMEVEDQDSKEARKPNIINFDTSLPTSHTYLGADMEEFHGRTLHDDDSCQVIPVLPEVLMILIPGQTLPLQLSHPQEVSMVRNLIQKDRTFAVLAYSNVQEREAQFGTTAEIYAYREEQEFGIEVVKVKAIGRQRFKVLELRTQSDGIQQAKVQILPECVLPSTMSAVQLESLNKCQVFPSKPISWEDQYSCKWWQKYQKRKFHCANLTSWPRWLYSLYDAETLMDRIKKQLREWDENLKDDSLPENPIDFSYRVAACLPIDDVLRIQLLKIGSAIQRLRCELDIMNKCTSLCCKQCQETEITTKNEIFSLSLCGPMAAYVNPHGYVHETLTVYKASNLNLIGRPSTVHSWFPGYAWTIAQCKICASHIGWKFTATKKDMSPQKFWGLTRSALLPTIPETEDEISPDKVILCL
- PROCEDURE_SUMMARY: In vivo protac activity at CRBN/BTK in BALB/c mouse assessed as remaining BTK protein in splenocyte at 3 mg/kg,po administration measured after 6 hrs by HTRF assay relative to control
- Type: functional, organism-based
Field: numeric (%). Do not append units.

* CN1CCN([C@@H]2CCCN(c3cnc(C(N)=O)c(Nc4ccc(C5CCN(C[C@H]6CCN(c7ccc8c(c7)C(=O)N(C7CCC(=O)NC7=O)C8=O)C6)CC5)nc4)n3)C2)C1=O (some centres undefined) | 46
* CN1CCN([C@@H]2CCCN(c3cnc(C(N)=O)c(Nc4ccc(C5CCN(C[C@H]6CCN(c7ccc8c(c7)C(=O)N(C7CCC(=O)NC7=O)C8=O)C6)CC5)cc4)n3)C2)C1=O (some centres undefined) | 32
* CN1CCN([C@@H]2CCCN(c3cnc(C(N)=O)c(Nc4ccc(N5CCC6(CC5)CCN(c5ccc7c(c5)C(=O)N(C5CCC(=O)NC5=O)C7=O)CC6)cc4)n3)C2)C1=O (some centres undefined) | 18

Would you mind telling me what Activity value was observed for CN1CCN([C@@H]2CCCN(c3cnc(C(N)=O)c(Nc4ccc(C5(C)CCN(C[C@H]6CCN(c7ccc8c(c7)C(=O)N(C7CCC(=O)NC7=O)C8=O)C6)CC5)cc4)n3)C2)C1=O (some centres undefined) ?
27

---

- SYSTEM_NAME: Tyrosine-protein kinase BTK (Homo sapiens, UniProt Q06187, C481S)
- Sequence (Q06187 2-659 C481S limits assumed): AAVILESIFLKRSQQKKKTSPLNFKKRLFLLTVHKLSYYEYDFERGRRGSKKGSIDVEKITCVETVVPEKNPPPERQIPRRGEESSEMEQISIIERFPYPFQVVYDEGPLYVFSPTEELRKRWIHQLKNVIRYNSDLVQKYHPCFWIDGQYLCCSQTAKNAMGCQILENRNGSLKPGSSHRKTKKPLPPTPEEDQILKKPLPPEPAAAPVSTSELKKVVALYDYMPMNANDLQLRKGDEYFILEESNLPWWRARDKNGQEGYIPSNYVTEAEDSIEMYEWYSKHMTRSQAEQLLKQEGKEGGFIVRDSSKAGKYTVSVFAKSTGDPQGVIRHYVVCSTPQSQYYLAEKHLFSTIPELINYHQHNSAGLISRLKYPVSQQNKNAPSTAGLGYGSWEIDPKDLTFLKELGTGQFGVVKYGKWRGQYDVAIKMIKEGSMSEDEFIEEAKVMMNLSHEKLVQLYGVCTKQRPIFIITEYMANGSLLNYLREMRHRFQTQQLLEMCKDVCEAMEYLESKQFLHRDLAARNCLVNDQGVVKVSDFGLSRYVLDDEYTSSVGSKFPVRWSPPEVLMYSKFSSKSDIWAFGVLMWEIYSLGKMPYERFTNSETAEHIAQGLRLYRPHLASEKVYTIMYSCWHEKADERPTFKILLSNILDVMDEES
- PROCEDURE_SUMMARY: Binding affinity to BTK C481S mutant (unknown origin) assessed as dissociation constant by surface plasmon resonance assay
MEASURED_QUANTITY: Kd (µM)
Response body: numeric value in µM, unit text excluded.

Record request: Kd value, item NC(=O)c1ncc(N2CCCCC2)nc1Nc1ccc(C2CCN(C[C@H]3CCN(c4ccc5c(c4)C(=O)N(C4CCC(=O)NC4=O)C5=O)C3)CC2)cc1 (stereo partly specified) [ZELEBRUDOMIDE]
0.018

---

- PROCEDURE_SUMMARY: Plasma protein binding in rat
- Format: ADME, cell-free
- COND: read-out: PPB
# reported fraction unbound; entries follow

• CN1CCN([C@@H]2CCCN(c3cnc(C(N)=O)c(Nc4ccc(C5CCN(C[C@H]6CCN(c7ccc8c(c7)C(=O)N(C7CCC(=O)NC7=O)C8=O)C6)CC5)cc4)n3)C2)C1=O (some centres not stated) = < 0.015

Give its fraction unbound value. Item: NC(=O)c1ncc(N2CCCCC2)nc1Nc1ccc(C2CCN(C[C@H]3CCN(c4ccc5c(c4)C(=O)N(C4CCC(=O)NC4=O)C5=O)C3)CC2)cc1 (some centres not stated) [ZELEBRUDOMIDE]
< 0.015

---

- PROCEDURE_SUMMARY: Cmax in mouse at 10 mg/kg,po
- Type: ADME, organism-based
- Design: dose 10 mg/kg, route po
- COND: in vivo
MEASURED_QUANTITY: Cmax (µM)
Quick reminder: number only, in µM, skip the unit.

Sample NC(=O)c1ncc(N2CCCCC2)nc1Nc1ccc(C2CCN(C[C@H]3CCN(c4ccc5c(c4)C(=O)N(C4CCC(=O)NC4=O)C5=O)C3)CC2)cc1 (stereo partly specified) [ZELEBRUDOMIDE] — what was its Cmax?
1.3

---

- SYSTEM_NAME: Cytochrome P450 1A2 (Homo sapiens, UniProt P05177)
- Sequence (P05177 whole entry): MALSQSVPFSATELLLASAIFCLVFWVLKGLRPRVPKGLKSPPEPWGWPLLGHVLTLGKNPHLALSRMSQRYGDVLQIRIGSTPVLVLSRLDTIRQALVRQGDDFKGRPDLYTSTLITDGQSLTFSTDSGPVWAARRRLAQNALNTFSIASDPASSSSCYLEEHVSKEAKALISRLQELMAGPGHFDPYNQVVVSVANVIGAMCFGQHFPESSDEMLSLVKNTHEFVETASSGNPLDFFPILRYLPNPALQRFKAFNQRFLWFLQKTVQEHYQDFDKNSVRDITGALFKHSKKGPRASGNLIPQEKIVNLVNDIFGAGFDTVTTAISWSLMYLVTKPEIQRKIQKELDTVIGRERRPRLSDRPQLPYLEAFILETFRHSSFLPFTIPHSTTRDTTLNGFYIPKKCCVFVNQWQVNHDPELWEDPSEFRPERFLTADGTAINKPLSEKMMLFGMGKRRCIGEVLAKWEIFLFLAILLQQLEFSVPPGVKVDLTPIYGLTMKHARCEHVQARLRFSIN
MEASURED_QUANTITY: IC50

Recorded IC50 for NC(=O)c1ncc(N2CCCCC2)nc1Nc1ccc(C2CCN(C[C@H]3CCN(c4ccc5c(c4)C(=O)N(C4CCC(=O)NC4=O)C5=O)C3)CC2)cc1 (stereo partly specified) [ZELEBRUDOMIDE] , please?
> 30 µM

---

- SYSTEM_NAME: Protein cereblon/Tyrosine-protein kinase BTK (Homo sapiens, UniProt Q06187+Q96SW2)
- Sequence (Q06187 whole entry): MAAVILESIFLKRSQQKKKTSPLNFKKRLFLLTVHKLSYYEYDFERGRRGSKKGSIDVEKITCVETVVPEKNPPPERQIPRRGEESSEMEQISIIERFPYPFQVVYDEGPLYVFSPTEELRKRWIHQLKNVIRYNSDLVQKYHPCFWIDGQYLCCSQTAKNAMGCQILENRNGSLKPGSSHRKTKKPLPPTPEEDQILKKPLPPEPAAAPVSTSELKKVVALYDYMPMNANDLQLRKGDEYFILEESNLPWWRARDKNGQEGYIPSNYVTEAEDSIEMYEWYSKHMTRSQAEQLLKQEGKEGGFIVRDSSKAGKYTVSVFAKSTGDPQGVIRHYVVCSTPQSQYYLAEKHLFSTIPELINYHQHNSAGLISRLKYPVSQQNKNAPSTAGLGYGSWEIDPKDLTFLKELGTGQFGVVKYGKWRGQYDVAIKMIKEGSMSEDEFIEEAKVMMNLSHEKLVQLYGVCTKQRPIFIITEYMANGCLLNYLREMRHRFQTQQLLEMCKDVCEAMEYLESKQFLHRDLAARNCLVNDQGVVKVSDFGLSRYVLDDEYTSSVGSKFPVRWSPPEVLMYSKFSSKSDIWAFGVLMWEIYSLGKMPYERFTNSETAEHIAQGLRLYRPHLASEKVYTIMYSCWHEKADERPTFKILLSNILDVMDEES
- Sequence (Q96SW2 whole entry): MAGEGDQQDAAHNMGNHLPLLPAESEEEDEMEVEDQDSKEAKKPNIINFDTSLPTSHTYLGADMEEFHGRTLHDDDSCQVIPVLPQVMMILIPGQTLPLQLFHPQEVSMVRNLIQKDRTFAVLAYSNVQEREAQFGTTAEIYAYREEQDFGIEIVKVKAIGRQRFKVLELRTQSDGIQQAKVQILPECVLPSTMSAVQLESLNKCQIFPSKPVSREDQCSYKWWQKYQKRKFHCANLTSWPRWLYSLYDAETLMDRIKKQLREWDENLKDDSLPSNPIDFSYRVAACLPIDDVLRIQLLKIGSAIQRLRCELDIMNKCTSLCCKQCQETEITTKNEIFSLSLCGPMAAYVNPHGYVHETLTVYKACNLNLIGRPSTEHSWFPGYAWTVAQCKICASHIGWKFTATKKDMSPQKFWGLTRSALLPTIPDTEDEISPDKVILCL
- PROCEDURE_SUMMARY: PROTAC activity at CRBN/BTK in human TMD8 cells assessed as degradation of BTK protein incubated for 4 hrs by HTRF assay
- Type: cell-based
Recorded DC50, one value per entry.
Expressed in nM, but write only the number.

The following compounds have reported results that may help.
• CN1CCN([C@@H]2CCCN(c3cnc(C(N)=O)c(Nc4ccc(C5CCN(C[C@H]6CCN(c7ccc8c(c7)C(=O)N(C7CCC(=O)NC7=O)C8=O)C6)CC5)nc4)n3)C2)C1=O (stereo partly specified) = 1
• CN1CCN([C@@H]2CCCN(c3cnc(C(N)=O)c(Nc4ccc(C5(C)CCN(C[C@H]6CCN(c7ccc8c(c7)C(=O)N(C7CCC(=O)NC7=O)C8=O)C6)CC5)cc4)n3)C2)C1=O (stereo partly specified) = 0.6
• CN1CCN([C@@H]2CCCN(c3cnc(C(N)=O)c(Nc4ccc(N5CCC6(CC5)CCN(c5ccc7c(c5)C(=O)N(C5CCC(=O)NC5=O)C7=O)CC6)cc4)n3)C2)C1=O (stereo partly specified) = 1.3
• NC(=O)c1ncc(-c2nccs2)nc1Nc1ccc(C2CCN(C[C@H]3CCN(c4ccc5c(c4)C(=O)N(C4CCC(=O)NC4=O)C5=O)C3)CC2)cc1 (stereo partly specified) = 1.7
• CN1CCN([C@@H]2CCCN(c3cnc(C(N)=O)c(Nc4cnn(C5CCN(CC6CCN(c7ccc8c(c7)C(=O)N(C7CCC(=O)NC7=O)C8=O)CC6)CC5)c4)n3)C2)C1=O (stereo partly specified) = 0.63

Kindly review the next compound as well.
Using the record for CN1CCN([C@@H]2CCCN(c3cnc(C(N)=O)c(Nc4ccc(N5CC6(C5)CN(c5ccc7c(c5)C(=O)N(C5CCC(=O)NC5=O)C7=O)C6)cc4)n3)C2)C1=O (stereo partly specified) , report its DC50.
0.8

---

Let's look at some molecules and their measured log10 DC50.
- SYSTEM_NAME: Protein cereblon/Tyrosine-protein kinase BTK (Homo sapiens, UniProt Q06187+Q96SW2)
- PROCEDURE_SUMMARY: PROTAC activity at CRBN/BTK in human Ramos cells assessed as degradation of BTK protein incubated for 4 hrs by HTRF assay
- Type: cell-based
The figures below represent log10 of DC50, where DC50 is stated in nM.

Worked examples, 4 molecules total:
• CN1CCN([C@@H]2CCCN(c3cnc(C(N)=O)c(Nc4ccc(C5CCN(C(=O)CCOCCNc6cccc7c6C(=O)N(C6CCC(=O)NC6=O)C7=O)CC5)cc4)n3)C2)C1=O (some centres not stated) = 0.80
• CN1CCN([C@@H]2CCCN(c3cnc(C(N)=O)c(Nc4ccc(C5CCN(C[C@H]6CC[C@@H](Nc7cccc8c7C(=O)N(C7CCC(=O)NC7=O)C8=O)CC6)CC5)cc4)n3)C2)C1=O (some centres not stated) = 0.85
• CN1CCN([C@@H]2CCCN(c3cnc(C(N)=O)c(Nc4ccc5c(c4)CCN(CC4CCN(c6ccc7c(c6)C(=O)N(C6CCC(=O)NC6=O)C7=O)CC4)C5)n3)C2)C1=O (some centres not stated) = 0.38
• CN1CCN([C@@H]2CCCN(c3cnc(C(N)=O)c(Nc4ccc(C5CCN(CC6CCN(c7ccc8c(c7)C(=O)N(C7CCC(=O)NC7=O)C8=O)CC6)CC5)cc4)n3)C2)C1=O (some centres not stated) = -0.12

What value of log10 DC50 has been reported for the following molecule? CN1CCN([C@@H]2CCCN(c3cnc(C(N)=O)c(Nc4ccc(C5CCN(C[C@H]6CCN(c7ccc8c(c7)C(=O)N(C7CCC(=O)NC7=O)C8=O)C6)CC5)cc4)n3)C2)C1=O (some centres not stated)
-0.30

One more molecule: CN1CCN([C@@H]2CCCN(c3cnc(C(N)=O)c(Nc4ccc(C5CCN(CCCNc6cccc7c6C(=O)N(C6CCC(=O)NC6=O)C7=O)CC5)cc4)n3)C2)C1=O (some centres not stated)
0.38

What do we get for CN1CCN([C@@H]2CCCN(c3cnc(C(N)=O)c(Nc4ccc(C5CCN(C6CN(c7ccc8c(c7)C(=O)N(C7CCC(=O)NC7=O)C8=O)C6)CC5)cc4)n3)C2)C1=O (some centres not stated) ?
0.15

Entry CN1CCN([C@@H]2CCCN(c3cnc(C(N)=O)c(Nc4ccc(C5CCN(C[C@H]6CC[C@H](Nc7cccc8c7C(=O)N(C7CCC(=O)NC7=O)C8=O)CC6)CC5)cc4)n3)C2)C1=O (some centres not stated) please
0.20

Same thing, different molecule: Cc1cccc(C[C@@H](NC(=O)c2ccc3[nH]ncc3c2)C(=O)N2Cc3[nH]c4ccccc4c3C[C@@H]2C(=O)NCCOCCOCCOCCOCCOCCOCCOCCNc2cccc3c2C(=O)N(C2CCC(=O)NC2=O)C3=O)c1 (some centres not stated)
3.46

Param item: CN1CCN([C@@H]2CCCN(c3cnc(C(N)=O)c(Nc4ccc(C5CCN(C[C@@H]6CCN(c7ccc8c(c7)C(=O)N(C7CCC(=O)NC7=O)C8=O)C6)CC5)cc4)n3)C2)C1=O (some centres not stated)
0.08

Same read-out for C[C@H]1CN(C(=O)CCOCCCc2cccc3c2CN(C2CCC(=O)NC2=O)C3=O)CCN1c1ccc(Nc2cc(-c3ccnc(N4CCn5c(cc6c5CC(C)(C)C6)C4=O)c3CO)cn(C)c2=O)nc1 (some centres not stated) ?
0.86
